tested on: Giardia intestinalis; assay: Antigiardial activity against metronidazole-resistant Giardia lamblia isolate 713 trophozoite after 2 days by bactiter-glo viability assay; assay type: functional, organism-based; conditions: Giardia duodenalis, isolate 713, 48 h
Hi there, I'd appreciate the recorded EC50 for every entry that follows.

-- ask Sample Cn1c([N+](=O)[O-])cnc1/C=C/c1cccc(F)c1 — what was its EC50?
-- reply 25.7 nM

-- ask Sample CC(=O)OC(c1ccc(C)cc1)C(OC(C)=O)c1ncc([N+](=O)[O-])n1C (stereo unspecified) — what was its EC50?
-- reply 174 nM

-- ask Sample Cn1c([N+](=O)[O-])cnc1/C=C/c1ccccc1 — what was its EC50?
-- reply 20.4 nM

-- ask Sample Cn1c([N+](=O)[O-])cnc1/C=C/c1ccc(Cl)cc1 — what was its EC50?
-- reply 36.3 nM

-- ask Sample Cn1c([N+](=O)[O-])cnc1CCc1ccccc1 — what was its EC50?
-- reply 102 nM

-- ask Sample Cn1c([N+](=O)[O-])cnc1/C=C/c1ccccc1-c1ccccc1 — what was its EC50?
-- reply 347 nM

-- ask Sample Cn1ccnc1/C=C/c1ncc([N+](=O)[O-])n1C — what was its EC50?
-- reply 51.3 nM

-- ask Sample Cn1c([N+](=O)[O-])cnc1/C=C/c1ccc(Br)cc1 — what was its EC50?
-- reply 8.13 nM

-- ask Sample Cn1c([N+](=O)[O-])cnc1/C=C/c1ccccc1Cl — what was its EC50?
-- reply 30.2 nM

-- ask Sample Cn1c([N+](=O)[O-])cnc1/C=C/c1ccsc1 — what was its EC50?
-- reply 24.5 nM

-- ask Sample Cn1c([N+](=O)[O-])cnc1/C=C/c1cccc(Br)c1 — what was its EC50?
-- reply 32.4 nM

----------
test system: Giardia intestinalis; test: Antigiardial activity against metronidazole-sensitive Giardia lamblia isolate 106 trophozoite after 2 days by bactiter-glo viability assay; assay type: functional, organism-based; details: Giardia duodenalis, isolate 106, 48 h
Hi there, I'd appreciate the recorded pEC50 for every entry that follows.
Recall that pEC50 is obtained by taking minus log10 of the concentration measured in molar.

-- ask Sample Cn1c([N+](=O)[O-])cnc1/C=C/c1ccccc1-c1ccccc1 — what was its pEC50?
-- reply 5.91

-- ask Sample Cn1c([N+](=O)[O-])cnc1/C=C/c1ccc(Cl)cc1 — what was its pEC50?
-- reply 6.59

-- ask Sample Cn1c([N+](=O)[O-])cnc1/C=C/c1ccc(Br)cc1 — what was its pEC50?
-- reply 6.70

-- ask Sample Cn1c([N+](=O)[O-])cnc1/C=C/c1cccc(Br)c1 — what was its pEC50?
-- reply 6.94

-- ask Sample Cn1c([N+](=O)[O-])cnc1/C=C/c1ccccc1 — what was its pEC50?
-- reply 6.40

-- ask Sample CCOC(OCC)c1ccc(/C=C/c2ncc([N+](=O)[O-])n2C)cc1 — what was its pEC50?
-- reply 6.70

-- ask Sample Cn1c([N+](=O)[O-])cnc1C(Br)C(Br)c1ccc(Br)cc1 (configuration not stated) — what was its pEC50?
-- reply 5.54

-- ask Sample Cc1ncc([N+](=O)[O-])n1CCO [METRONIDAZOLE] — what was its pEC50?
-- reply 4.59

-- ask Sample Cn1c([N+](=O)[O-])cnc1/C=C/c1ccccc1Cl — what was its pEC50?
-- reply 6.60

-- ask Sample CC(=O)OC(c1ccc(C)cc1)C(OC(C)=O)c1ncc([N+](=O)[O-])n1C (configuration not stated) — what was its pEC50?
-- reply 5.51

-- ask Sample Cn1c([N+](=O)[O-])cnc1CCc1ccccc1 — what was its pEC50?
-- reply 5.59

-- ask Sample Cn1c([N+](=O)[O-])cnc1/C=C/c1ccsc1 — what was its pEC50?
-- reply 6.41

-- ask Sample Cn1ccnc1/C=C/c1ncc([N+](=O)[O-])n1C — what was its pEC50?
-- reply 6.60

-- ask Sample Cn1c([N+](=O)[O-])cnc1/C=C/c1ccco1 — what was its pEC50?
-- reply 6.44

-- ask Sample Cn1c([N+](=O)[O-])cnc1/C=C/c1ccccc1Br — what was its pEC50?
-- reply 6.55

-- ask Sample Cc1cc(C)c(/C=C/c2ncc([N+](=O)[O-])n2C)c(C)c1 — what was its pEC50?
-- reply 6.37

-- ask Sample Cn1c([N+](=O)[O-])cnc1/C=C/c1cccc(F)c1 — what was its pEC50?
-- reply 7.03
